# assay-target: MATK (human) (UniProt P42679)
# Sequence (P42679 whole entry, looked up): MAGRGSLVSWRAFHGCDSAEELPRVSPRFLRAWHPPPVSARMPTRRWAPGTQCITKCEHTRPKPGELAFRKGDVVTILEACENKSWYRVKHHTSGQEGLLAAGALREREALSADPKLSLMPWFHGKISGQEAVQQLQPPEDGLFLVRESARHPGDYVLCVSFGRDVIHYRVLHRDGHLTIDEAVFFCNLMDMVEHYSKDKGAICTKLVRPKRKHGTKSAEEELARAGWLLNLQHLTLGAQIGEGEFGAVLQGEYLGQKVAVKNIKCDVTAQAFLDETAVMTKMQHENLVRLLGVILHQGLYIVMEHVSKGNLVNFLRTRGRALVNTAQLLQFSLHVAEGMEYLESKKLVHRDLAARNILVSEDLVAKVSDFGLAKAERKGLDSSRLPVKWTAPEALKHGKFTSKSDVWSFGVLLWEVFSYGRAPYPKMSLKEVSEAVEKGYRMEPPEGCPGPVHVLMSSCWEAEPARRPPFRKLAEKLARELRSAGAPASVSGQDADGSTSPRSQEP
# assay-method-text: KINOMEscan competition binding
# test-settings: compound 10.0 µM
Can you tell me kinase still bound, per cent of control for the items I'm about to list?
One number for each entry, in %.

Examples with their reported kinase still bound, per cent of control follow.
INSERT INTO measurements (molecule, obs_value) VALUES
  ('N#Cc1cc(-c2ccnc(Nc3ccc(-n4cnc(-c5cccnc5)n4)cc3)n2)cc(N2CCOCC2)c1', 62),
  ('N#C/C(=C1/Nc2ccccc2S1)c1ccnc(NCCc2cccnc2)n1', 100);

For every record below, what is its kinase still bound, per cent of control?
1. O=c1[nH]c2ccccc2n1C1CCN(Cc2ccc(-c3nc4cc5[nH]cnc5cc4nc3-c3ccccc3)cc2)CC1
2. COc1cc2c(Nc3ccc(NC(=O)c4ccccc4)cc3)ncnc2cc1OCCCN1CCOCC1
3. Cc1cn(-c2cc(C(=O)Nc3ccc(C)c(NC(=O)c4ccno4)c3)cc(C(F)(F)F)c2)cn1
4. CC(=O)c1c(C)c2cnc(Nc3ccc(N4CCNCC4)cn3)nc2n(C2CCCC2)c1=O

Marked response:
1: 70; 2: 100; 3: 100; 4: 46

Can you give me kinase still bound, per cent of control for all of these, one by one?
1. CCN1CCN(Cc2ccc(NC(=O)c3ccc(C)c(/C=C/c4cnc5[nH]ccc5c4OC)c3)cc2C(F)(F)F)CC1
2. C=CC(=O)Nc1ccc(C(=O)c2sc(Nc3ccc(N4CCN(C)CC4)cc3OC)nc2N)cc1

Marked response:
[100, 25]

Go through the list and state kinase still bound, per cent of control for each entry.
1. CCCS(=O)(=O)Nc1ccc(F)c(C(=O)c2c[nH]c3ncc(Cl)cc23)c1F
2. CCN(CCO)CCCOc1ccc2c(Nc3cc(CC(=O)Nc4cccc(F)c4)[nH]n3)ncnc2c1
3. COc1cc2ncnc(Nc3cccc(Cl)c3)c2cc1OC

Marked response:
1: 90; 2: 71; 3: 48

Each of the following entries comes with a recorded value; kindly state kinase still bound, per cent of control for each.
1. CC1=C(C(=O)Nc2cc3cn[nH]c3cc2F)C(c2ccc(C(F)(F)F)cc2)CC(=O)N1 (stereo not given)
2. CCc1nc(-c2cccc(C)c2)c(-c2ccnc(NC(=O)c3ccccc3)c2)s1
3. CCOc1cc(N2CCC(O)CC2)ccc1Nc1ncc2c(n1)N(C)c1ccccc1C(=O)N2C
4. CNC(=O)Nc1ccc(-c2nc(N3CC4CCC(C3)O4)c3cnn(C4CCC5(CC4)OCCO5)c3n2)cc1

Marked response:
68
100
100
100

====

# assay-target: PKN2 (human)
# assay-method-text: KINOMEscan competition binding
# test-settings: compound 10.0 µM
Response field label: string, one of fulfilled (kinase still bound, per cent of control strictly below 80%) or not fulfilled.

Exam item: In the record for `CCN1CCN(Cc2ccc(NC(=O)c3ccc(C)c(/C=C/c4cnc5[nH]ccc5c4OC)c3)cc2C(F)(F)F)CC1` , is kinase still bound, per cent of control less than 80%?
Marked response: fulfilled

Exam item: Check if kinase still bound, per cent of control falls below 80% for `CC(=O)c1c(C)c2cnc(Nc3ccc(N4CCNCC4)cn3)nc2n(C2CCCC2)c1=O` .
Marked response: fulfilled

Exam item: Determine whether this molecule shows kinase still bound, per cent of control lower than 80% (ties excluded): `O=c1[nH]c2ccccc2n1C1CCN(Cc2ccc(-c3nc4cc5[nH]cnc5cc4nc3-c3ccccc3)cc2)CC1`
Marked response: not fulfilled

Exam item: Hello, I'm reviewing records and need to know if kinase still bound, per cent of control of `COc1cc2ncnc(Nc3cccc(Cl)c3)c2cc1OC` is below 80%. Could you check?
Marked response: fulfilled

Exam item: Hello, is kinase still bound, per cent of control of the following molecule strictly smaller than 80%? `CCOc1cc(N2CCC(O)CC2)ccc1Nc1ncc2c(n1)N(C)c1ccccc1C(=O)N2C`
Marked response: not fulfilled

Exam item: Field: below-cutoff. Rule: recorded kinase still bound, per cent of control strictly less than 80%. Subject: `CCN(CCO)CCCOc1ccc2c(Nc3cc(CC(=O)Nc4cccc(F)c4)[nH]n3)ncnc2c1`
Marked response: not fulfilled

Exam item: Decide: kinase still bound, per cent of control of `CNC(=O)Nc1ccc(-c2nc(N3CC4CCC(C3)O4)c3cnn(C4CCC5(CC4)OCCO5)c3n2)cc1` strictly below 80%?
Marked response: not fulfilled

Exam item: # TODO verify kinase still bound, per cent of control < 80% strictly for this molecule: `C=CC(=O)Nc1ccc(C(=O)c2sc(Nc3ccc(N4CCN(C)CC4)cc3OC)nc2N)cc1`
Marked response: not fulfilled

Exam item: Dear reviewer, please state whether `CCCS(=O)(=O)Nc1ccc(F)c(C(=O)c2c[nH]c3ncc(Cl)cc23)c1F` has kinase still bound, per cent of control strictly beneath 80%.
Marked response: not fulfilled

====

# assay-target: PHKG2 (human) (UniProt P15735)
# Sequence (P15735 whole entry, looked up): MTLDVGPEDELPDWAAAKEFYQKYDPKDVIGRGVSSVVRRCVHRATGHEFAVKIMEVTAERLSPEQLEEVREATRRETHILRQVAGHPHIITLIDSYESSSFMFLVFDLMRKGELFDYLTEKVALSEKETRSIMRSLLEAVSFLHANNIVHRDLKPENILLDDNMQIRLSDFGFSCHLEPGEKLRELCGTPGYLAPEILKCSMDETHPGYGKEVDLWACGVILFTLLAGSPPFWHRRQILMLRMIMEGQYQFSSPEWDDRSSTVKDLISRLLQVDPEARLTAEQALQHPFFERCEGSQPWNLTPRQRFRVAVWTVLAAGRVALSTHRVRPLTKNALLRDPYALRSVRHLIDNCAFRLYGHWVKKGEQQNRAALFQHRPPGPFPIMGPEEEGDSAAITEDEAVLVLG
# assay-method-text: KINOMEscan competition binding
# test-settings: compound 10.0 µM
reported-endpoint: kinase still bound, per cent of control (%)
Answers are plain numbers, in %.

See these solved cases before continuing.
INSERT INTO measurements (compound, obs_value) VALUES
  ('COc1cc2c(Nc3ccc(NC(=O)c4ccccc4)cc3)ncnc2cc1OCCCN1CCOCC1', 76),
  ('CCN1CCN(Cc2ccc(NC(=O)c3ccc(C)c(/C=C/c4cnc5[nH]ccc5c4OC)c3)cc2C(F)(F)F)CC1', 100),
  ('CCOc1cc(N2CCC(O)CC2)ccc1Nc1ncc2c(n1)N(C)c1ccccc1C(=O)N2C', 100),
  ('N#Cc1cc(-c2ccnc(Nc3ccc(-n4cnc(-c5cccnc5)n4)cc3)n2)cc(N2CCOCC2)c1', 81),
  ('COc1cc(N2CCC(C(N)=O)CC2)ccc1Nc1nc(N)c(Cl)c(Nc2ccccc2S(=O)(=O)C(C)C)n1', 13),
  ('Cc1cn(-c2cc(C(=O)Nc3ccc(C)c(NC(=O)c4ccno4)c3)cc(C(F)(F)F)c2)cn1', 100),
  ('COc1ccc(N(C(=O)Oc2cc(C(=O)Nc3cccc(C(F)(F)F)c3)ccc2C)c2ccnc(Nc3ccc(N4CCN(C)CC4)cc3)n2)c(OC)c1', 100),
  ('CCc1nc(-c2cccc(C)c2)c(-c2ccnc(NC(=O)c3ccccc3)c2)s1', 76),
  ('COc1cc(C)c(Sc2cnc(NC(=O)c3ccc(CNC(C)C(C)C)cc3)s2)cc1C(=O)N1CCN(C(C)=O)CC1 (stereo not drawn)', 11),
  ('CC(=O)c1c(C)c2cnc(Nc3ccc(N4CCNCC4)cn3)nc2n(C2CCCC2)c1=O', 5);

Could you tell me kinase still bound, per cent of control for each of these compounds? They are listed below.
1. O=c1[nH]c2ccccc2n1C1CCN(Cc2ccc(-c3nc4cc5[nH]cnc5cc4nc3-c3ccccc3)cc2)CC1
2. C=CC(=O)Nc1ccc(C(=O)c2sc(Nc3ccc(N4CCN(C)CC4)cc3OC)nc2N)cc1

Marked response:
100
3

get_value(item= `CCCS(=O)(=O)Nc1ccc(F)c(C(=O)c2c[nH]c3ncc(Cl)cc23)c1F` , readout=kinase still bound, per cent of control) returns 52

====

Please provide measured kinase still bound, per cent of control for the entries that follow.
# assay-target: FGFR1 (human) (UniProt P11362)
# Sequence (P11362 whole entry, looked up): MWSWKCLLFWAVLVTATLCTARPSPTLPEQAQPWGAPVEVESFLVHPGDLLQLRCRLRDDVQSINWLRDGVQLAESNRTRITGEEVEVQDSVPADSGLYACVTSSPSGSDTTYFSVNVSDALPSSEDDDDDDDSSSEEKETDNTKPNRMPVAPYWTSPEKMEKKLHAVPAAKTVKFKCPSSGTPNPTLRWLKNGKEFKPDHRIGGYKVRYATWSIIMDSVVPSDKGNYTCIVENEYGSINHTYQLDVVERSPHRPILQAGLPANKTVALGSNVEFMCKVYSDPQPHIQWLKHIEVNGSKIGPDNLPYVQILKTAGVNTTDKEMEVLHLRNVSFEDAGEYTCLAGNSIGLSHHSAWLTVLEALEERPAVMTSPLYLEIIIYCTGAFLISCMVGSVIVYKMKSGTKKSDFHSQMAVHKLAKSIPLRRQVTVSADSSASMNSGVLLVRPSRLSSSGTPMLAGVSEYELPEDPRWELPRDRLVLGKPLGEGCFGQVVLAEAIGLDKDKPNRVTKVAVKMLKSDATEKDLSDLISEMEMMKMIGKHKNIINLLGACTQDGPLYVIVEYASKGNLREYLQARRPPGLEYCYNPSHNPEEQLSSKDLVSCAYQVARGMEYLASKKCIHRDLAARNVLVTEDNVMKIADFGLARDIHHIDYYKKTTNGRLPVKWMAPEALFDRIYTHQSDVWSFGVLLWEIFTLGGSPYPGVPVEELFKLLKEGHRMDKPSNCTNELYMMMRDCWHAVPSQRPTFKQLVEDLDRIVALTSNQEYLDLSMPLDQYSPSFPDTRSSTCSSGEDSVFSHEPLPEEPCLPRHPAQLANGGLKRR
# assay-method-text: KINOMEscan competition binding
# test-settings: compound 10.0 µM
Answers are plain numbers, in %.

INSERT INTO assay_data (compound, reported_endpoint, units, obs_value) VALUES
  ('CC1=C(C(=O)Nc2cc3cn[nH]c3cc2F)C(c2ccc(C(F)(F)F)cc2)CC(=O)N1 (stereo not given)', 'kinase still bound, per cent of control', '%', 73),
  ('N#Cc1cc(-c2ccnc(Nc3ccc(-n4cnc(-c5cccnc5)n4)cc3)n2)cc(N2CCOCC2)c1', 'kinase still bound, per cent of control', '%', 93),
  ('CCc1nc(-c2cccc(C)c2)c(-c2ccnc(NC(=O)c3ccccc3)c2)s1', 'kinase still bound, per cent of control', '%', 72),
  ('C=CC(=O)Nc1ccc(C(=O)c2sc(Nc3ccc(N4CCN(C)CC4)cc3OC)nc2N)cc1', 'kinase still bound, per cent of control', '%', 38);

Please examine the following record next.
Reading of kinase still bound, per cent of control for `CCOc1cc(N2CCC(O)CC2)ccc1Nc1ncc2c(n1)N(C)c1ccccc1C(=O)N2C` with FGFR1 (human) (UniProt P11362): 100

====

# assay-target: AURKA (human)
# assay-method-text: KINOMEscan competition binding
# test-settings: compound 10.0 µM
reported-endpoint: kinase still bound, per cent of control (%)
Give bare numbers, in %.

Need kinase still bound, per cent of control for each of these compounds.
1. CCN(CCO)CCCOc1ccc2c(Nc3cc(CC(=O)Nc4cccc(F)c4)[nH]n3)ncnc2c1
2. COc1cc2ncnc(Nc3cccc(Cl)c3)c2cc1OC
3. COc1ccc(N(C(=O)Oc2cc(C(=O)Nc3cccc(C(F)(F)F)c3)ccc2C)c2ccnc(Nc3ccc(N4CCN(C)CC4)cc3)n2)c(OC)c1

Marked response:
[6.5, 43, 100]

Your task in this section: give kinase still bound, per cent of control for each listed record.
1. CC1=C(C(=O)Nc2cc3cn[nH]c3cc2F)C(c2ccc(C(F)(F)F)cc2)CC(=O)N1 (stereo not given)
2. CNC(=O)Nc1ccc(-c2nc(N3CC4CCC(C3)O4)c3cnn(C4CCC5(CC4)OCCO5)c3n2)cc1

Marked response:
46
100
